target: Rat FAAH-1 (Rattus norvegicus); assay: Rat FAAH-1 assay (Assay Method 2), 3H-anandamide hydrolysis in cell homogenate
Sequence (P97612 whole entry): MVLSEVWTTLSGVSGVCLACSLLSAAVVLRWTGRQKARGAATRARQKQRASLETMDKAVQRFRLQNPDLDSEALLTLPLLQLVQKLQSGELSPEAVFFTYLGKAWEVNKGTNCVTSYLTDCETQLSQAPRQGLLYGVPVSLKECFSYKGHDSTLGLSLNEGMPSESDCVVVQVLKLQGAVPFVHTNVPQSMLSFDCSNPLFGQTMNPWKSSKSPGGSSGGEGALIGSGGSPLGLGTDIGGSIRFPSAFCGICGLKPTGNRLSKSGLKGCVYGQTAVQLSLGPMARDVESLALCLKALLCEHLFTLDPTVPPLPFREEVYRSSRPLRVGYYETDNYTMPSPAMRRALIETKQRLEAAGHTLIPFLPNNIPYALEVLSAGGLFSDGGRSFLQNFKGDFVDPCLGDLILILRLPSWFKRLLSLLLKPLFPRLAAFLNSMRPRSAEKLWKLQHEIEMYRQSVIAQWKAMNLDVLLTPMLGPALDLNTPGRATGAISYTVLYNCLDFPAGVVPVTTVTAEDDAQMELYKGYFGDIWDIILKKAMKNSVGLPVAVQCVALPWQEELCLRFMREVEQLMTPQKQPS
Where a name gives a salt, the structure may show the parent alone.
MEASUREMENT LABEL: IC50 (nM)

Some solved entries appear below for comparison.
N[C@@H](CNc1cc(-c2ccc(OC(F)(F)F)c(F)c2)ncn1)c1ccccc1 [Example 8]
170
N[C@H](CNc1cc(-c2ccc(C(F)(F)F)c(Cl)c2)ncn1)c1ccccc1 [Example 3]
2400
N[C@@H](CNc1cc(-c2ccc(Cl)c(Cl)c2)ncn1)c1ccccc1 [Example 16]
500
N#Cc1ccc([C@H](N)CNc2cc(-c3ccc(C(F)(F)F)c(Cl)c3)ncn2)cc1 [Example 33]
1000
N[C@@H](CNc1cc(-c2ccc3c(c2)OC(F)(F)O3)ncn1)c1ccccc1 [Example 24]
1000

I: N[C@@H](CNc1cc(-c2ccc(C(F)(F)F)c(Cl)c2)ncn1)c1ccc(F)c(Cl)c1 [Example 47]
II: N[C@@H](CNc1cc(-c2ccc(OC(F)(F)F)c(F)c2)ncn1)c1ccc(F)cc1 [Example 64, trifluoroacetic acid salt]
Request: Select one. Lower IC50: I or II Answer with the label corresponding to your selection.
Result: II
